Each record here notes measured percent inhibition of viability.
system: normal primary NK cells, pool 1 (3 donors), resting (IL-2 0 ng/mL); assay: percent inhibition of viability; higher = more inhibition; conditions: 72 h; 1 nM;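 also: normalised to DMSO-only wells as negative and benzethonium chloride as positive control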
Numbers only; they are read as %.

Worked examples follow.
Compound | Target under test | percent inhibition of viability / %
O=NN(CCCl)C(=O)NCCCl [Carmustine] (max concentration tested 10000 nM) | normal primary NK cells, pool 1 (3 donors), resting (IL-2 0 ng/mL) | 9.22
CNC(=O)c1cccc2cc(Oc3ccnc4cc(OCC5(N)CC5)c(OC)cc34)ccc12 [Lucitanib] (max concentration tested 10000 nM) | normal primary NK cells, pool 1 (3 donors), resting (IL-2 0 ng/mL) | -16.7
C[C@H]1C[C@@H]2[C@H]([C@@H](O)C[C@@]3(C)[C@H]2CC[C@]3(O)C(=O)CO)[C@@]2(C)C=CC(=O)C=C12 [Methylprednisolone] (max concentration tested 10000 nM) | normal primary NK cells, pool 1 (3 donors), resting (IL-2 0 ng/mL) | -1.18
CCS(=O)(=O)c1cccc(-c2cc(C(=O)NC3CCN(C)CC3)c(C)c3[nH]c4ncc(C)cc4c23)c1 [TAK-901] (max concentration tested 1000 nM) | normal primary NK cells, pool 1 (3 donors), resting (IL-2 0 ng/mL) | -13.9

Enquiry: Short answer please: percent inhibition of viability, normal primary NK cells, pool 1 (3 donors), resting (IL-2 0 ng/mL), entry CO[C@H]1C[C@@H]2CC[C@@H](C)[C@@](O)(O2)C(=O)C(=O)N2CCCC[C@H]2C(=O)O[C@H]([C@H](C)C[C@@H]2CC[C@@H](OC(=O)C(C)(CO)CO)[C@H](OC)C2)CC(=O)[C@H](C)/C=C(\C)[C@@H](O)[C@@H](OC)C(=O)[C@H](C)C[C@H](C)/C=C/C=C/C=C/1C [Temsirolimus] (max concentration tested 100 nM)
Return: 6.4
